Reference source for all entries: ChEMBL document CHEMBL1123290

test system: Plasmodium berghei; assay: Antimalarial activity as 60-day survivors in infected mice (Mus musculus) after single 320mg/kg subcutaneous dose 72 hr post infection; format: functional
Decision: No. of mice cured beneath 4 gives true (1); No. of mice cured meeting or exceeding 4 gives false (0).

| smiles-entry | group |
| --- | --- |
| CCN(CC)Cc1cc(Nc2cc[n+]([O-])c3cc(Cl)ccc23)cc(-c2ccc(Cl)cc2)c1O | false (0) |
| CCN(CC)Cc1cc(Nc2cc[n+]([O-])c3cc(Cl)ccc23)cc(-c2ccccc2F)c1O | true (1) |
| CC(C)(C)NCc1cc(C(C)(C)C)cc(-c2ccc(Cl)cc2)c1O | false (0) |
| CCN(CC)Cc1cc(Nc2ccnc3cc(Cl)ccc23)cc(-c2cccc(Cl)c2)c1O | false (0) |
| CCN(CC)Cc1cc(Nc2cc[n+]([O-])c3cc(Cl)ccc23)cc(-c2ccc(OC)cc2)c1O | true (1) |
| CCN(CC)Cc1cc(Nc2cc[n+]([O-])c3cc(Cl)ccc23)cc(-c2cccc(F)c2)c1O | true (1) |
| CC(C)(C)NCc1cc(Nc2ccnc3cc(Cl)ccc23)cc(-c2ccc(Cl)cc2)c1O | true (1) |
| CCN(CC)Cc1cc(Nc2cc[n+]([O-])c3cc(Cl)ccc23)cc(-c2ccccc2C(F)(F)F)c1O | false (0) |
| CCN(CC)Cc1cc(Nc2cc[n+]([O-])c3cc(Cl)ccc23)cc(-c2ccccn2)c1O | true (1) |
| CCN(CC)Cc1cc(Nc2ccnc3cc(Cl)ccc23)cc(-c2ccc(SC)cc2)c1O | true (1) |
| Oc1c(CN2CCCC2)cc(Nc2ccnc3cc(Cl)ccc23)cc1-c1ccc(Cl)c(Cl)c1 | true (1) |
| CCN(CC)Cc1cc(Nc2ccnc3cc(Cl)ccc23)cc(-c2c(F)cccc2F)c1O | false (0) |
| CCN(CC)Cc1cc(Nc2ccnc3cc(Cl)ccc23)cc(-c2ccc(Cl)c(Cl)c2)c1O | false (0) |
| CCN(CC)Cc1cc(Nc2ccnc3cc(Cl)ccc23)cc(-c2ccccc2OC)c1O | true (1) |
| CCN(CC)Cc1cc(Nc2cc[n+]([O-])c3cc(Cl)ccc23)cc(-c2ccncc2)c1O | true (1) |

* * *

system: Plasmodium berghei; test: Change in mean survival time for control (average 6.2 days) versus treated mice (Mus musculus) 72 hrs after 640 mg/kg subcutaneous dose; assay type: functional
observation-type: Delta MST (days)

| smiles-entry | assay-result |
| --- | --- |
| CCN(CC)Cc1cc(Nc2ccnc3cc(Cl)ccc23)cc(-c2ccccc2C(F)(F)F)c1O | 20.7 |
| CC(C)(C)NCc1cc(Nc2ccnc3cc(Cl)ccc23)cc(-c2ccc(F)cc2)c1O | 14.4 |
| CCN(CC)Cc1cc(Nc2ccnc3cc(Cl)ccc23)cc(-c2cccnc2)c1O | 34.8 |
| CCN(CC)Cc1cc(Nc2ccnc3cc(Cl)ccc23)cc(-c2cccc(F)c2)c1O | 15.8 |

* * *

system: Plasmodium berghei; experiment: Change in mean survival time for control (average of 6.2 days) versus treated mice (Mus musculus) 72 hrs after 80 mg/kg subcutaneous dose; type: functional

| compound | Delta MST (days) |
| --- | --- |
| CN(C)Cc1cc(Nc2ccnc3cc(Cl)ccc23)cc(-c2ccc(Cl)cc2)c1O | 45.4 |
| CCCCN(CCCC)Cc1cc(Nc2ccnc3cc(Cl)ccc23)cc(-c2ccc(Cl)cc2)c1O | 12.6 |
| CCN(CC)Cc1cc(Nc2ccnc3cc(Cl)ccc23)cc(-c2ccc(C)cc2)c1O | 6.5 |
| CCN(CC)Cc1cc(Nc2ccnc3cc(Cl)ccc23)cc(-c2ccc(SC)cc2)c1O | 10 |
| Oc1c(CN2CCCC2)cc(Nc2ccnc3cc(Cl)ccc23)cc1-c1ccc(Cl)c(Cl)c1 | 30.2 |
| CC(C)(C)NCc1cc(Nc2ccnc3cc(Cl)ccc23)cc(-c2ccc(C(F)(F)F)cc2)c1O | 10.7 |
| CCN(CC)Cc1cc(Nc2ccnc3cc(Cl)ccc23)cc(-c2c(F)cccc2F)c1O | 24.1 |
| CCN(CC)Cc1cc(Nc2ccnc3cc(Cl)ccc23)cc(-c2ccccc2F)c1O | 26.2 |
| CCN(CC)Cc1cc(Nc2ccnc3cc(Cl)ccc23)cc(-c2ccc(Cl)c(Cl)c2)c1O | 33.4 |
| CCN(CC)Cc1cc(Nc2ccnc3cc(Cl)ccc23)cc(-c2cccnc2)c1O | 19.6 |
| CC(C)(C)NCc1cc(Nc2ccnc3cc(Cl)ccc23)cc(-c2ccccc2)c1O | 27.3 |
| CCN(CC)Cc1cc(Nc2ccnc3cc(Cl)ccc23)cc(-c2cc(OC)ccc2OC)c1O | 3.6 |
| CCN(CC)Cc1cc(Nc2ccnc3cc(Cl)ccc23)cc(-c2ccc(OC)c(OC)c2)c1O | 5.4 |
| CCN(CC)Cc1cc(Nc2ccnc3cc(Cl)ccc23)cc(-c2cccc(F)c2F)c1O | 33.3 |
| CCN(CC)Cc1cc(Nc2ccnc3cc(Cl)ccc23)cc(-c2ccccc2C(F)(F)F)c1O | 25.5 |
| CCN(CC)Cc1cc(Nc2ccnc3cc(Cl)ccc23)cc(-c2cccc(F)c2)c1O | 12.8 |
| CC(C)(C)NCc1cc(C(C)(C)C)cc(-c2ccc(Cl)cc2)c1O | 15.7 |
| CCC(C)NCc1cc(Nc2ccnc3cc(Cl)ccc23)cc(-c2ccc(Cl)cc2)c1O (centres undefined) | 14 |
| CCN(CC)Cc1cc(Nc2ccnc3cc(Cl)ccc23)cc(-c2ccc(O)cc2)c1O | 4.8 |
| CCN(CC)Cc1cc(Nc2ccnc3cc(Cl)ccc23)cc(-c2cccc(C(F)(F)F)c2)c1O | 28.2 |
| CCN(CC)Cc1cc(Nc2ccnc3cc(Cl)ccc23)cc(-c2ccc(C(F)(F)F)cc2)c1O | 12 |
| CC(C)(C)NCc1cc(Nc2ccnc3cc(Cl)ccc23)cc(-c2ccc(Cl)c(Cl)c2)c1O | 30.4 |
| Oc1c(CNC2CCCCC2)cc(Nc2ccnc3cc(Cl)ccc23)cc1-c1ccc(Cl)cc1 | 23.6 |
| CCCN(CCC)Cc1cc(Nc2ccnc3cc(Cl)ccc23)cc(-c2ccc(Cl)cc2)c1O | 27.6 |
